System: HCT116
Settings: 72 h; ICRF193 0 nM
readout: IC50 cell viability

Previously resolved entries follow.
CC(C)(C)c1nnc(NS(=O)(=O)c2ccccc2)s1 [Glybuzole] ... > 45.8 µM
O=C(NC(=O)c1c(F)cccc1F)Nc1cc(Cl)c(OC(F)(F)C(F)C(F)(F)F)cc1Cl (stereo not drawn) [Lufenuron] ... > 45.8 µM

Now turn to the next compound.
stdin: Requested read-out: IC50 cell viability. Entry: Cc1c(I)c(=O)n(-c2ccccc2)n1C [Iodoantipyrine]
stdout: > 45.8 µM

###

System: HCT116
Settings: 72 h; ICRF193 0 nM
Provide the recorded IC50 cell viability for the entries that follow.

C[C@]12C=CC(=O)C=C1CC[C@@H]1[C@@H]2[C@@H](O)C[C@@]2(C)[C@H]1CC[C@]2(O)C(=O)CO [Prednisolone] ... > 45.8 µM

Record IC50 cell viability per entry; entries follow.
1. CN1CCN(C2=Nc3cc(Cl)ccc3Nc3ccccc32)CC1 [Clozapine]
2. Clc1cccc(Cl)c1NC1=NCCN1 [Clonidine]
3. NCCCC(O)(P(=O)(O)O)P(=O)(O)O [ALENDRONATE SODIUM]

stdout:
> 45.8 µM
> 45.8 µM
> 45.8 µM

stdin: Find the measured IC50 cell viability: item COc1ccc(C(C)(C)C)cc1CN[C@H]1C2CCN(CC2)[C@H]1C(c1ccccc1)c1ccccc1 [Maropitant] , target or system HCT116.
stdout: 18.3 µM

###

System: HCT116
Settings: 72 h; ICRF193 200 nM
Structures can show the parent of a compound that is named as a salt.
Record form. Attribute: IC50 cell viability. Fill in for each entry.

Recorded results for 5 compounds are shown here.
C[C@]12C=CC(=O)C=C1CC[C@@H]1[C@@H]2[C@@H](O)C[C@@]2(C)[C@H]1CC[C@]2(O)C(=O)CO ... > 45.8 µM
C[N+](C)(C)CCCCCC[N+](C)(C)C ... > 45.8 µM
O=C(c1ccccc1)c1ccc2n1CCC2C(=O)O (stereo unspecified) ... > 45.8 µM
O=C1CCC(N2C(=O)c3ccccc3C2=O)C(=O)N1 (stereo unspecified) [Thalidomide] ... > 45.8 µM
CC(C)[C@@H]1CC[C@@H](C)CC1=O ... > 45.8 µM

Now turn to the next compound.
stdin: Using the record for CN(C)CCCN1c2ccccc2Sc2ccccc21 [Promazine hydrochloride] , report its IC50 cell viability.
stdout: 20.6 µM

###

Could you please report measured IC50 cell viability for the items listed next?
System: HCT116
Details: 72 h; ICRF193 0 nM
Counter-ions that a name gives are not always drawn.

CC(=O)Nc1ccc(O)cc1 ... > 45.8 µM
COC(=O)C1=C(C)NC(C)=C(C(=O)OC(C)(C)CN(C)CCC(c2ccccc2)c2ccccc2)C1c1cccc([N+](=O)[O-])c1 (stereo not drawn) [Lercanidipine hydrochloride] ... 20.6 µM
O=C1N=C(N2CCOCC2)CN1c1ccc(Cl)cc1 ... > 45.8 µM

Take each entry in turn and give its IC50 cell viability.
1. N[C@@H](CSSC[C@H](N)C(=O)O)C(=O)O
2. CCN(CC)CC(=O)OCC(=O)[C@@]1(O)CC[C@H]2[C@@H]3CCC4=CC(=O)CC[C@]4(C)[C@H]3[C@@H](O)C[C@@]21C [Hydrocortamate]
3. Cc1cncc(CN2CCC(=C3c4ccc(Cl)cc4CCc4cccnc43)CC2)c1 [Rupatadine (Fumarate)]
4. Cc1c(C)c2c(c(C)c1OC(=O)CCC(=O)O)CC[C@@](C)(CCC[C@H](C)CCC[C@H](C)CCCC(C)C)O2 [D-alpha-Tocopherol succinate]

stdout:
["> 45.8 µM", "> 45.8 µM", "18.3 µM", "> 45.8 µM"]

stdin: What value of measured IC50 cell viability is listed for CCCc1c2oc(C(=O)O)cc(=O)c2cc2c(=O)cc(C(=O)O)n(CC)c12 ?
stdout: > 45.8 µM
